Each entry below carries its reported Kd.
# target or test system: T1, His-tagged IgD2-D3 of human FGFR3-IIIc (human, UniProt P22607 143-372)
# T1 construct: domain: IgD2-D3; also called FGFR3-IIIC-His protein; IIIc-His protein; not shown: His tag
# T1 sequence: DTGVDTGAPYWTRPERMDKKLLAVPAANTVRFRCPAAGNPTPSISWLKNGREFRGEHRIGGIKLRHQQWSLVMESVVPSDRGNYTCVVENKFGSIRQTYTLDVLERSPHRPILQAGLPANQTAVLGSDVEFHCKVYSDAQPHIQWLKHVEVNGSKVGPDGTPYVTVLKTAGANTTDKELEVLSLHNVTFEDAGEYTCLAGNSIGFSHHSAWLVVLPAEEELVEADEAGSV
# assay remarks: BIAcore SPR; antibody on CM5 chip, FGFR3-His protein injected
metric name: Kd (nM)

[[record]]
binder = "anti-FGFR3 antibody clone 184.6.62 (antibody, V domains shown) VH: EVQLVESGGGLVQPGGSLRLSCAASGFTFSTTGISWVRQAPGKGLEWVGRIYPLYGSTHYADSVKGRFTISADTSKNTAYLQMNSLRAEDTAVYYCARARTYGIYDLYVDYTEYVMDYWGQGTLV VL: DIQMTQSPSSLSASVGDRVTITCRASQDVSTAVAWYQQKPGKAPKLLIYSASFLYSGVPSRFSGSGSGTDFTLTISSLQPEDFATYYCQQTYTTSLTFGQGTKVEIKR"
metric_name = "Kd"
unit_label = "nM"
result_number = 2.24

[[record]]
binder = "anti-FGFR3 antibody clone 184.6.1 (antibody, V domains shown) VH: EVQLVESGGGLVQPGGSLRLSCAASGFTFTSTGISWVRQAPGKGLEWVGRIYPTNGSTNYADSVKGRFTISADTSKNTAYLQMNSLRAEDTAVYYCARARTYGIYDLYVDYTEYVMDYWGQGTLV VL: DIQMTQSPSSLSASVGDRVTITCRASQDVDTSLAWYQQKPGKAPKLLIYSASFLYSGVPSRFSGSGSGTDFTLTISSLQPEDFATYYCQQSTGHPQTFGQGTKVEIKR"
metric_name = "Kd"
unit_label = "nM"
result_number = 1.44

[[record]]
binder = "anti-FGFR3 antibody clone 184.6 (antibody, V domains shown, The tie to the clone name is indirect) VH: EVQLVESGGGLVQPGGSLRLSCAASGFTFTSTGISWVRQAPGKGLEWVGRIYPTNGSTNYADSVKGRFTISADTSKNTAYLQMNSLRAEDTAVYYCARARTYGIYDLYVDYTEYVMDYWGQGTLV VL: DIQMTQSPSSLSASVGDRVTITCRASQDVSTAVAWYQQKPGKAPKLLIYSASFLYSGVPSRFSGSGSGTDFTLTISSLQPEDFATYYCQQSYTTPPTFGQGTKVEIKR"
metric_name = "Kd"
unit_label = "nM"
result_number = 110

[[record]]
binder = "anti-FGFR3 antibody clone 184.6.58 (antibody, V domains shown) VH: EVQLVESGGGLVQPGGSLRLSCAASGFTFTSTGISWVRQAPGKGLEWVGRIYPTNGSTNYADSVKGRFTISADTSKNTAYLQMNSLRAEDTAVYYCARARTYGIYDLYVDYTEYVMDYWGQGTLV VL: DIQMTQSPSSLSASVGDRVTITCRASQDVDISLAWYQQKPGKAPKLLIYSASSLASGVPSRFSGSGSGTDFTLTISSLQPEDFATYYCQQGAGNPYTFGQGTKVEIKR"
metric_name = "Kd"
unit_label = "nM"
result_number = 0.88

